Just for reference, the supplement of paper PMC11061612 is where these values come from.

- Tested on: NOMO-1 (Acute Myeloid Leukemia);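 also: after 72 h of two-drug dosing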
- test-details: Bliss excess, mean over the matrix (fraction); higher = more synergy
endpoint-label: Bliss excess
Keep the answer to the number alone.

- molecule: "CN(CCO)CC[C@H](CSc1ccccc1)Nc1ccc(S(=O)(=O)NC(=O)c2ccc(N3CCC([C@@H](O)c4ccccc4-c4ccc(Cl)cc4)CC3)cc2)cc1S(=O)(=O)C(F)(F)F [AZD4320] + Cn1cnc2c(F)c(Nc3ccc(Br)cc3Cl)c(C(=O)NOCCO)cc21 [Selumetinib] (first compound max 1 µM, 7x7, partner max 3 µM)"
  Bliss excess: 0.143

Find the recorded Bliss excess belonging to COc1nnc2ccc(N3CCC(c4ccc(OCCN5CCN(C)C(=O)[C@H]5C)cc4)CC3)nn12 [AZD5153] + Cc1c2c(nn1C)CSCc1cc(n(C)n1)CSc1cc(c3ccccc3c1)OCCCc1c(C(=O)O)n(C)c3c-2c(Cl)ccc13 [AZD5991] (first compound max 1 µM, 7x7, partner max 1 µM) and report it.
0.0355

###

Each record here notes measured combination Emax.
- System: EW-22 (Ewing's Sarcoma)
- test-details: combination Emax (second highest fraction inhibited in the dose matrix, 72 h); higher = more inhibition; extreme values may be limits of the assay
Keep the answer to the number alone.

Find the recorded combination Emax belonging to CC1(C)CCC(CN2CCN(c3ccc(C(=O)NS(=O)(=O)c4ccc(NCC5CCOCC5)c([N+](=O)[O-])c4)c(Oc4cnc5[nH]ccc5c4)c3)CC2)=C(c2ccc(Cl)cc2)C1 [Venetoclax] + Cn1cnc2c(F)c(Nc3ccc(Br)cc3Cl)c(C(=O)NOCCO)cc21 [Selumetinib] (first compound max 1 µM, 7x7, partner max 3 µM) and report it.
0.855

Find the recorded combination Emax belonging to Cc1cc2ncnn2cc1Nc1ncc2c(n1)n(C1CCOCC1)c(=O)n2C [AZD7648] + O=C(c1cc(Cc2n[nH]c(=O)c3ccccc23)ccc1F)N1CCN(C(=O)C2CC2)CC1 [Olaparib] (first compound max 10 µM, 7x7, partner max 10 µM) and report it.
0.918

Find the recorded combination Emax belonging to CC1(C)CCC(CN2CCN(c3ccc(C(=O)NS(=O)(=O)c4ccc(NCC5CCOCC5)c([N+](=O)[O-])c4)c(Oc4cnc5[nH]ccc5c4)c3)CC2)=C(c2ccc(Cl)cc2)C1 [Venetoclax] + CN(C)CCCOc1ccc(-c2ccc3ncc4c(c3c2)n(C2CCOCC2)c(=O)n4C)cn1 [AZD0156] (first compound max 1 µM, 7x7, partner max 1 µM) and report it.
0.866

###

- Test system: MSTO-211H (Mesothelioma)
- test-details: combination Emax (second highest fraction inhibited in the dose matrix, 72 h); higher = more inhibition; extreme values may be limits of the assay
Each record here notes measured combination Emax.
Keep the answer to the number alone.

Below, each entry is followed by its recorded combination Emax result.
- compound: "Cc1c2c(nn1C)CSCc1cc(n(C)n1)CSc1cc(c3ccccc3c1)OCCCc1c(C(=O)O)n(C)c3c-2c(Cl)ccc13 [AZD5991] + Cn1cnc2c(F)c(Nc3ccc(Br)cc3Cl)c(C(=O)NOCCO)cc21 [Selumetinib] (first compound max 1 µM, 7x7, partner max 3 µM)"
  measurement-target: "MSTO-211H (Mesothelioma)"
  measured-number: 0.264
- compound: "CC1(C)CCC(CN2CCN(c3ccc(C(=O)NS(=O)(=O)c4ccc(NCC5CCOCC5)c([N+](=O)[O-])c4)c(Oc4cnc5[nH]ccc5c4)c3)CC2)=C(c2ccc(Cl)cc2)C1 [Venetoclax] + CN(C)CCCOc1ccc(-c2ccc3ncc4c(c3c2)n(C2CCOCC2)c(=O)n4C)cn1 [AZD0156] (first compound max 1 µM, 7x7, partner max 1 µM)"
  measurement-target: "MSTO-211H (Mesothelioma)"
  measured-number: 0.123
- compound: "C=CCn1c(=O)c2cnc(Nc3ccc(N4CCN(C)CC4)cc3)nc2n1-c1cccc(C(C)(C)O)n1 [AZD1775] + CCc1c2c(nc3ccc(O)cc13)-c1cc3c(c(=O)n1C2)COC(=O)[C@]3(O)CC [SN-38] (first compound max 1 µM, partner max 0.3 µM)"
  measurement-target: "MSTO-211H (Mesothelioma)"
  measured-number: 0.783
- compound: "Cc1c2c(nn1C)CSCc1cc(n(C)n1)CSc1cc(c3ccccc3c1)OCCCc1c(C(=O)O)n(C)c3c-2c(Cl)ccc13 [AZD5991] + C[C@@H]1COCCN1C2=NC(=NC(=C2)C3(CC3)[S@](=N)(=O)C)C4=C5C=CNC5=NC=C4 [AZD6738] (first compound max 1 µM, 7x7, partner max 10 µM)"
  measurement-target: "MSTO-211H (Mesothelioma)"
  measured-number: 0.688
- compound: "NC1(C(=O)N[C@@H](CCO)c2ccc(Cl)cc2)CCN(c2ncnc3[nH]ccc23)CC1 [Capivasertib] + CCN(CCO)CCCOc1ccc2c(Nc3cc(CC(=O)Nc4cccc(F)c4)[nH]n3)ncnc2c1 [AZD2811] (first compound max 10 µM, 7x7, partner max 1 µM)"
  measurement-target: "MSTO-211H (Mesothelioma)"
  measured-number: 0.379

Which measured combination Emax belongs to CC(=O)c1c(C)c2cnc(Nc3ccc(N4CCNCC4)cn3)nc2n(C2CCCC2)c1=O [Palbociclib] + CC1(C)CCC(CN2CCN(c3ccc(C(=O)NS(=O)(=O)c4ccc(NCC5CCOCC5)c([N+](=O)[O-])c4)c(Oc4cnc5[nH]ccc5c4)c3)CC2)=C(c2ccc(Cl)cc2)C1 [Venetoclax] (first compound max 10 µM, 7x7, partner max 1 µM) , tested on MSTO-211H (Mesothelioma)?
0.0513

Which measured combination Emax belongs to Cc1cc2ncnn2cc1Nc1ncc2c(n1)n(C1CCOCC1)c(=O)n2C [AZD7648] + CN(C)CCCOc1ccc(-c2ccc3ncc4c(c3c2)n(C2CCOCC2)c(=O)n4C)cn1 [AZD0156] (first compound max 10 µM, 7x7, partner max 1 µM) , tested on MSTO-211H (Mesothelioma)?
0.33
